Please respond with reported growth for every item in the list.
system: T-47D breast; assay: NCI-60 one-dose screen, 48 h (100 = growth as untreated, 0 = no growth, -100 = all killed); conditions: 10 µM unless noted
The panel holds about 83,000 compounds, 20% with a hit somewhere; the sample as a whole holds those more often.
Answers are plain numbers, in %.

FC(F)(F)c1cccc(Oc2ccc(Nc3ncnc4ccc(OCCCN5CCOCC5)cc34)cc2Cl)c1    32.7

Hi team, please reply with growth for each item in this list.
1. CC1(C)CC[C@]2(C(=O)NCC#CCN3CCOCC3)CC[C@]3(C)C(=CC[C@@H]4[C@@]5(C)Cc6c([nH]c7ccccc67)C(C)(C)[C@@H]5CC[C@]43C)[C@@H]2C1
2. C[C@@H]1CN(Cc2ccc(/C=C/c3n[nH]c4ccc5nc(-c6cn[nH]c6C(F)(F)F)c6c(c5c34)CCCC6)cc2)C[C@H](C)O1

A.
75.2
49.8

Please state growth for every compound in the list that follows.
1. CCOC(=O)c1cnc2c(cnn2CC)c1NN=C(C)C
2. CCN1C(=O)N(CC)C2C1NN=c1s/c(=C3\C(=O)Nc4ccccc43)c(=O)n12 (stereo not drawn)
3. CN1C2CCC1CN(c1cnc(C(=O)Nc3cc(F)cc4cccnc34)cn1)C2

A.
1. 87.7
2. 15.6
3. 36

Give me growth for each of these compounds, listed below.
1. COc1ccc(-c2nc(SCCC(C)C)nc(N/N=C(/C)c3ccc(C)cc3)c2C#N)cc1
2. COc1cc(/C=N/NC(=O)c2ccccc2Nc2cccc(C(F)(F)F)c2)ccc1O

A.
1: 87.1; 2: 55.6

###

tested on: OVCAR-4 ovarian; test: NCI-60 one-dose screen, 48 h; settings: 10 µM unless noted
Compounds without any hit were thinned out: in the full panel of roughly 83,000, 20% have a hit. The source made the active and inactive calls. The calls were made as follows: active = growth percent below 10; inactive = the rest.
Pick one and only one: t = active, f = inactive

Look over these answered cases.
COc1ccc(NC(=O)c2sc3nc(C)c(C(=O)c4ccc(OC)cc4)cc3c2N)cc1    f
CC(C)(C)CC(C)(C)Nc1c(-c2ccc(C(F)(F)F)cc2)nc2cnccn12    f
Clc1ccc(N2N=C(c3cccc(Nc4ccncc4)c3)CC2c2ccc(Br)cc2)cc1 (centres undefined)    t
COc1cccc(CCC(=O)c2cc3c(N)c(C(=O)Nc4cccc(Cl)c4C)sc3nc2C)c1    f
COc1ccc(/C=C\c2nc3ccccc3s2)cc1OP(=O)(O)O    f

Q. Could you check what this test reported for COc1cccc2c1C(=O)c1c(O)c3c(c(O)c1C2=O)C[C@@](O)(C(=O)CO)C[C@@H]3O[C@H]1C[C@H](N)[C@@H](O)[C@H](C)O1 ?
A. t

###

tested on: K-562 leukemia; assay: NCI-60 one-dose screen, 48 h (100 = growth as untreated, 0 = no growth, -100 = all killed); details: 10 µM unless noted
Compounds without any hit were thinned out: in the full panel of roughly 83,000, 20% have a hit.
Criterion: growth strictly under 50%. Met: 1. Not met: -1.

Answered examples (10):
COC(=O)N[C@H]1CCc2cc(OC)c(OC)c(OC)c2-c2ccc(SC)c(=O)cc21    1
CN(C)CCCn1c2c(c3ccc(-c4ccn[nH]4)cc3c1=O)C(=O)c1ccccc1-2    1
CCCCCCCCCCCCCCCCCCOc1ccccc1N    -1
CC1(c2ccccc2)NC(=O)N(CC(=O)Nc2cccc(I)c2)C1=O (stereo not drawn)    -1
S=c1[nH]cccc1-c1nnc2n1Nc1nc3ccc(Cl)cc3cc1CS2    -1
CC[C@H](C)[C@@H]1NC(=O)[C@H](Cc2ccc(O)cc2)N(C)C(=O)[C@H](Cc2ccccc2)NC(=O)CN(C)C(=O)[C@@H]2CCCN2C(=O)[C@@H](Cc2ccccc2)N(C)C(=O)[C@H](CC(C)C)NC1=O    1
COc1ccc(C(=O)c2cc(C)c(OC)c(C)c2)c(OC)c1N(C(=O)C(Cl)Cl)C(=O)C(Cl)Cl    1
CC[C@H](CC[C@@H](C)[C@H]1CC[C@H]2[C@@H]3CC=C4C[C@@H](OCCc5nn[nH]n5)CC[C@]4(C)[C@H]3CC[C@]12C)C(C)C    -1
O=C(O)CCCCCCCCCCCCCCC(=O)O    -1
COc1cc(/C=C2\C(=O)N(Cc3ccc(Cl)cc3)c3ccccc32)cc(OC)c1OC    1

Q. Please indicate whether the reported growth of Clc1ccc(N2N=C(c3cccc(Nc4ccncc4)c3)CC2c2ccc3c(c2)OCO3)cc1 (stereo not drawn) is strictly below 50%.
A. 1

Q. Please determine if O=c1nc2n(nc1/C=C/c1ccco1)CC(c1ccc(Cl)cc1)=NN2 is below 50% in terms of growth.
A. -1

Q. Lab log: compare recorded growth with 50%; is it strictly lower for CC(C)(C)CC(C)(C)Nc1c(-c2ccc(C(F)(F)F)cc2)nc2cnccn12 ?
A. -1

Q. API: query returns whether the molecule falls strictly under 50% in growth. Query: O=C(Cc1ccc(/C=C/C(=O)c2ncc[nH]2)cc1)Nc1ccc(C(F)(F)F)cc1
A. 1

Q. # TODO verify growth < 50% strictly for this molecule: Cc1c(C(=O)NO)sc2ncnc(Nc3ccc(NC(=S)Nc4ccccc4)cc3)c12
A. -1

Q. Here's an entry: O=S(=O)(c1ccccc1)N1CCCc2ccccc21 . Is its growth below 50%?
A. -1
